assay: compound effects on multiple myeloma cell viability – MM1S, calcein-AM fluorescence, 48 h, basal, profiling panel (AID 1165); settings: higher = more signal;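 note: viability of MM1S multiple myeloma cells under basal unstimulated conditions; test concentration not given here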
Is z-score at least 0.3? Then 1 (yes). If not, 0 (no).

*Q* Please indicate if the recorded z-score for `COCC(=C=CC[C@H](O)c1cccc(OCCO)c1)CCO` meets or exceeds 0.3.
*A* 0 (no)

*Q* Please indicate if the recorded z-score for `C=C(/C(=C/C[C@H](OC(C)=O)c1ccc(OCCO)cc1)c1cc(C(=O)OC)ccc1OC)C(C)C` meets or exceeds 0.3.
*A* 0 (no)

*Q* Please indicate if the recorded z-score for `C#CCNCc1ccccc1` meets or exceeds 0.3.
*A* 1 (yes)

*Q* Please indicate if the recorded z-score for C=CC1c2cc(O)c(OC)cc2CCN1Cc1cccc(OC(F)(F)F)c1 (stereo unspecified) meets or exceeds 0.3.
*A* 0 (no)

*Q* Please indicate if the recorded z-score for COc1cc2c(cc1O)C(c1cccs1)N(Cc1cccc(OC(F)(F)F)c1)CC2 (stereo unspecified) meets or exceeds 0.3.
*A* 0 (no)

*Q* Please indicate if the recorded z-score for `C=C(CCCC)C(=O)CC[C@H](OC(=O)c1cccnc1)c1ccc(OCCO)cc1` meets or exceeds 0.3.
*A* 0 (no)

* * *

experiment: small molecules captured by biotinylated probe aFGF10 – biochemical, small-molecule microarray, fluorescence 635/667, stem cell growth factor project, primary screen (AID 1071); details: higher = more signal;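 note: score merges 667 nm spot intensity and signal to noise from triplicate slides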
Property Name: composite z-score

*Q* Requested read-out: composite z-score. Entry: `COCCCNC(=O)[C@@]1(Sc2ccc(C)cc2)CC(=O)N(Cc2ccccc2Cl)[C@@H]1c1ccc(CO)cc1`
*A* 0.429

*Q* Requested read-out: composite z-score. Entry: C=CCC(OC(C)=O)[C@@H]1[C@@H](N(Cc2ccc(-c3ccccc3)cc2)C(=O)Cc2ccc(F)cc2)c2cc(OCCCO)ccc2N1C(=O)c1ccc2ccccc2c1 (stereo not given in full)
*A* -0.0326

*Q* Requested read-out: composite z-score. Entry: `COC(=O)c1c(CC[C@@H](CO)NC(=O)NCCc2c[nH]c3ccccc23)oc(C(=O)Cc2ccccc2)c1C(=O)OC`
*A* 0.203

*Q* Requested read-out: composite z-score. Entry: O=C1OCCC=C[C@H]2OC34C=CCN(c5ccc(Cl)cc5)C(=O)[C@H]3N(CCCO)C(=O)[C@@H]4C12 (stereo not given in full)
*A* -0.144

*Q* Requested read-out: composite z-score. Entry: `C=C(CCCC)C(=O)CC[C@H](OC(=O)c1cccnc1)c1ccc(OCCO)cc1`
*A* 0.149

*Q* Requested read-out: composite z-score. Entry: `COC(=O)[C@@]1(Cc2ccccc2)[C@H]2c3cc(C(=O)N(C)C)n(CCc4c[nH]c5ccc(O)cc45)c3C[C@H]2CN1C(=O)c1ccccc1`
*A* 0.188

*Q* Requested read-out: composite z-score. Entry: `COC(=O)c1c2oc(c1C(=O)OC)C(=O)NC1(CCCCC1)c1cn(nn1)C[C@H](Cc1ccccc1)NC(=O)N[C@H](CO)CC2`
*A* 0.117

*Q* Requested read-out: composite z-score. Entry: O=C1NC(=O)C2C1C=CC(C(O)c1ccc(-c3ccccc3)s1)N2Nc1ccc(Cl)cc1Cl (stereo not given)
*A* 0.297

*Q* Requested read-out: composite z-score. Entry: `C=CC[C@]1(C(=O)N2CCOCC2)N=C(c2ccc(OCCCO)cc2)O[C@H]1c1ccccc1N=[N+]=[N-]`
*A* 0.642

*Q* Requested read-out: composite z-score. Entry: N#Cc1ccc(C(O)C2C=CC3C(=O)N(c4ccccc4)C(=O)C3N2Nc2ccccc2F)cc1 (stereo not given)
*A* 0.936

*Q* Requested read-out: composite z-score. Entry: `CCCC[C@@H]1C[C@H]1[C@@H](NC(=O)c1cccnc1)c1ccc(Cl)cc1`
*A* -1.77

*Q* Requested read-out: composite z-score. Entry: `COCCOC(=O)N1C(=O)[C@@]2(c3cc(C#CC4(O)CCCCCC4)ccc31)[C@H](C(=O)Nc1nc3ccccc3s1)[C@H]1C(=O)O[C@H](c3ccccc3)[C@H](c3ccccc3)N1[C@@H]2c1ccccc1OCCO`
*A* 0.94

*Q* Requested read-out: composite z-score. Entry: O=C1NC(=O)C2C1C=CC(C(O)C=Cc1ccc([N+](=O)[O-])cc1)N2Nc1ccc(Cl)cc1Cl (stereo not given)
*A* 0.797

*Q* Requested read-out: composite z-score. Entry: `COc1ccc([Si](C)(C)[C@@H]2[C@@H](CCn3cc(CCO)nn3)O[C@]3(C(=O)N(Cc4cccc(N5C(=O)c6cccc7cccc5c67)c4)c4ccccc43)[C@H]2C)cc1`
*A* 0.359

*Q* Requested read-out: composite z-score. Entry: `COC(=O)c1c(CC[C@@H](CO)NC(=O)N[C@@H](Cc2ccccc2)Cn2cc(-c3ccccn3)nn2)oc(C(=O)N2CCOCC2)c1C(=O)OC`
*A* 0.218
